System: MS2 coat protein
Experiment: apparent KD of MS2 coat protein; designed switch direction (-1 OFF switch, 1 ON switch): 1; higher = weaker reporter binding
Conditions: input ligand: none
Please respond with reported apparent KD of MS2 coat protein for every item in the list.
Numbers only, in µM.

Completed entries (count: 2):
>  <Chain>
AUUCGUUUGAUAGGAUAUCACCUUACAUGAGGAUCACCCAUGUUCACCACGCUGGUUUUUCAUACUGAGAAGGAUCUUGAUGAC [JR_SSNG2_Sub007] (Eterna round: R96, puzzle: Same State NG 2)

>  <Measure>
apparent KD of MS2 coat protein

>  <Measured value>
0.0514

$$$$
>  <Chain>
AGGACGAGCACAGGAUAUCCGCGGAACAGCCGCGGAGAAGGGUGAAGUCAUGGAAAGAAAAGACAUGAGGAUCACCCAUGUAAA [Ageteerer] (Eterna round: R96, puzzle: Same State NG 1)

>  <Measure>
apparent KD of MS2 coat protein

>  <Measured value>
0.68

$$$$

Data request: Please supply the value of reported apparent KD of MS2 coat protein for the item GGAGCCGGCACCGAGGAUAUUCAUAUUAAAACAUGAGGAUCACCCAUGUAGGCCAGAAGGCUUUGGGAGAAGGCGGAUCGGCUCG [Xeonanis - 3] (Eterna round: R96, puzzle: Same State 2)
Data returned: 0.568

---

Please respond with reported apparent KD of MS2 coat protein for every item in the list.
Tested on: MS2 coat protein
Experiment: apparent KD of MS2 coat protein; higher = weaker reporter binding
Details: Eterna round: R107; input ligand: tryptophan 2.4 mM
Show the value, then the unit it is measured in.

Completed entries (count: 2):
>  <Chain>
ACAUGAGGAUCACCCAUGUAAUCCUCUGAAGGAGCGAGAAAUAACUCAGGUAGGUCGCAGUUCAAAACAUGAGGAUCACCCAUGU [Exclusion Arginine A GF 9]

>  <Target desc>
MS2 coat protein

>  <apparent KD of MS2 coat protein>
0.0511 µM

$$$$
>  <Chain>
ACAUGAGGAUCACCCAUGUUCCUCGCCGAUACCAGUGAAGAAUUACGCCCUUGGCAGCGGAAAGAGUGUUUUGGAGAUGAGGUAC [6.aA]

>  <Target desc>
MS2 coat protein

>  <apparent KD of MS2 coat protein>
0.1 µM

$$$$

Next item in the queue.
Data request: Please supply the value of reported apparent KD of MS2 coat protein for the item AAAAUAAAUAAAACACGUAACAUGAAGGAUACCAGACAGGAAACUGUCCCUUGGCAGCCUCUACAUGAGGAUCACCCAUGUCGUG [Mat - Same State Theophlline A - Mod of Eli - D17]
Data returned: 0.266 µM

---

Tested on: MS2 coat protein
Test: apparent KD of MS2 coat protein; designed switch direction (-1 OFF switch, 1 ON switch): 1; higher = weaker reporter binding
Conditions: input ligand: none
// bucketize apparent KD of MS2 coat protein: bin 1 (below 60 nM), bin 2 (60 nM to below 100 nM), bin 3 (100 nM or more)

Observe how each entry below is paired with its result.
>  <Chain>
UUAAUUUACUGAGGAUAUCGUGUCGUCUGAUUUGACAUGAGGAUCACCCAUGUGUGAAGUGGUAUCGAGAAGGCAGUUUUCUUA [JR_SSNG2_Sub027] (Eterna round: R96, puzzle: Same State NG 2)

>  <Class>
bin 2

$$$$
>  <Chain>
GUAGCAUACCGAGGAUAUUCAUUACAUGAGGAUCACCCAUGUUUUAUAGGUCGAUUACGACCUUGGGAGAAGGCGGAAUGCUAC [Xeonanis - 20 Mod30] (Eterna round: R96, puzzle: Same State NG 2)

>  <Class>
bin 1

$$$$
>  <Chain>
GUGUGUUGCGGGCAGGAUAUGUACUUGAGUACAUGAGGAUCACCCAUGUGCGGGUGUUUCACCCGACAGAAGGGCCUAUCGCGAC [JL-ss2-3.25 ViennaUCT mod] (Eterna round: R96, puzzle: Same State 2)

>  <Class>
bin 3

$$$$

Data request: Please classify: GUGGUCAGACAUGAGGAUCACCCAUGUGGAAUAAAUAACGGUGAGGAUAUGCAAUAUAGGAUAUAGUAGAAGGCAUGAUUGGUG (Eterna round: R96, puzzle: Same State NG 3)
Data returned: bin 3

Data request: Please classify: UAGUGCGUUAGAGGAUAUUCUAAAAAAAAAAAAAAGACAUGAGGAUCACCCAUGUAUGUACAUGGGAAGAAGGCUGAUGUGCUA [Omei SS(NG)2 B] (Eterna round: R96, puzzle: Same State NG 2)
Data returned: bin 3

Data request: Please classify: GCUAGUAUUAUUGCUAACAUGAGGAUCACCCAUGUAUGUUGGCAGGAUAUCGUUUGCUUUGCAAACGAGAAGGGCUAAACUAGC [JL SSNG3 1.05] (Eterna round: R96, puzzle: Same State NG 3)
Data returned: bin 2

Data request: Please classify: GGUGGGUUACUACCCACACAUGAGGAUCACCCAUGUAUUGGGAAGGAUAUGGUGCCUGUGUGGUACCAGAAGGUCCUGGAGGUG [SS-NG3-LRO20] (Eterna round: R96, puzzle: Same State NG 3)
Data returned: bin 3

Data request: Please classify: GUAGCAUACCGAGGAUAUUCAUAUUAAAACAUGAGGAUCACCCAUGUUUAGGCCAAAAGGCCUUGGGAGAAGGCGGAAUGCUAC [Xeonanis - 20 Mod4] (Eterna round: R96, puzzle: Same State NG 2)
Data returned: bin 1

Data request: Please classify: GAGCUCGUGUGAGGAUAUGCCGCCGUUUCGGCUGCAGAAGGUGCUACGUUACAUGAGGAUCACCCAUGUCUCUGUUGUUUCGUG [salish99_SSNG1_r04_958] (Eterna round: R96, puzzle: Same State NG 1)
Data returned: bin 1

Data request: Please classify: GGCAGUCCGACACAGGAUAUGGGUAACGAAACAUGAGGAUCACCCAUGUGGAAACAUCGGGUUGCCUAGAAGGGUGGAAAGAUUG [Xeti] (Eterna round: R96, puzzle: Same State 2)
Data returned: bin 3

---

System: MS2 coat protein
Assay: apparent KD of MS2 coat protein, switch ON state; designed switch direction (-1 OFF switch, 1 ON switch): 1; higher = weaker reporter binding
Settings: FMN input: 0 or 200 uM; Eterna round: R93 (includes R88 designs)
Measure: apparent KD of MS2 coat protein
Show the value, then the unit it is measured in.

>  <Chain>
GUAGAACAUGAGGAUCACCCAUGUGAAGACGCAUGAGGAUAUAUACGUAAAUAGCAUACGAUAGAAGGCAUGAUAA [JR_SS001_Sub1703]

>  <apparent KD of MS2 coat protein>
25.5 nM

$$$$
>  <Chain>
AAUAUACAUGAGGAUCACCCAUGUUAGGUGGGACUAGGAUAUCAAAAUAAAUAAAGAACAUGAGAAGGAGUAUAAA [JR_SS001_Sub017]

>  <apparent KD of MS2 coat protein>
75.3 nM

$$$$
>  <Chain>
GAAAAACAUGAGGAUCACCCAUGUGAGAUAAACACAGGAUAUGCGAAAAUAAACAAAUAAGCAGAAGGGUGAAAAG [Mat - Same State 1 - Tesla mod - 80]

>  <apparent KD of MS2 coat protein>
27.1 nM

$$$$

Each sequence below has a reported value. Please supply its apparent KD of MS2 coat protein.
1. AGAAAUAAAAGAGAGGAUAUCCAAAAGAAAACAUGAGGAUCACCCAUGUAAAACAAAACAAAAUGGGAGAAGGCUCAAAAUAAGA [Topaz 15]
2. AAGAACGUGGUGUAGGAUAUACUAAUAGUCACAUGAGGAUCACCCAUGUUCAUAUAUAUGAACGAGUAGAAGGACGACGAAAAAA [Mat - Same state - Malcolm Mod - D107]
3. AUACUGGAGGACAAGGAUAUGUGCUCCACGACAUGAGGAUCACCCAUGUGCGACGUGGUAGUGAAACAGAAGGUGUCCUAUUGUA [Edonisve]

Data returned:
1: 19.8 nM; 2: 137 nM; 3: 13.1 nM

---

Test system: MS2 coat protein
Test: apparent KD of MS2 coat protein; designed switch direction (-1 OFF switch, 1 ON switch): -1; higher = weaker reporter binding
Conditions: input ligand: FMN 200 uM
Measure: apparent KD of MS2 coat protein (nM)
Numbers only, in nM.

>  <Chain>
AAAGACCAAGUGAGGAUAUUAUGGACAAUGGAACAUGAGAAGGCACAUGAGGAUCACCCAUGUGAAUAGGGACG [Eternabot (Original) Solution 22] (Eterna round: R97, puzzle: Brourd's mod of Exclusion 4)

>  <Target desc>
MS2 coat protein

>  <Measure>
apparent KD of MS2 coat protein

>  <Unit text>
nM

>  <Measured value>
33.5

$$$$

Each sequence below has a reported value. Please supply its apparent KD of MS2 coat protein.
1. UAUUAGCAAGUAAGGUCCCACAUGAGGAUCACCCAUGUGCUCGUCACCUCAGGUACGGAGCGGAAACUCCCGAUAUG [Sensor-V1 #91] (Eterna round: R97, puzzle: Sensor, turn-off variant 1)
2. CUGAAAGACGAAGGAUAUCCAGGCACCGGAGUAGGAGAAGGUCGUCCGGGUGUCCUAGAACUUGAGGAUCACCCAAGUAGAAGA [Mutated MS2 EX1.5] (Eterna round: R96, puzzle: Exclusion NG 1)
3. CUGCUGGAGCUUUGCUUUAGUCGUACAUGAGGAUCACCCAUGUAGGAUAUGGUAGGCUUUGCUUACUAGAAGGAUAGAGUGGUC [salish99_ExNG3_r04_606] (Eterna round: R96, puzzle: Exclusion NG 3)
4. AAAUCACAUGAGGAUCACCCAUGUGAGGAUAUGAUACUAUGUACUUCGGUACAUAGUAUCAGAAGGCAUAUGGA [Ex1-3: 32] (Eterna round: R96, puzzle: Exclusion 1)
5. UCAUAUAACGAGGAUAUGCGGGCCGUUUUCCCAGCAGAAGGCGUUACAUGAGGAUCACCCAUGUACCCGGGUAA [EX6 A.29] (Eterna round: R97, puzzle: Exclusion 6)

Data returned:
81.4
34.4
226
39.4
18.1
